- experimental_system: mutant MGL (Homo sapiens, UniProt Q99685, L169S/L176S)
- test_method_notes: MGL ThermoFluor assay - mutant
property: log10 Kd (log10 of the value in nM)
Remember, log10 of Kd, in nM.

Consider the following illustrative entries.
| smiles_input | property | measured |
| --- | --- | --- |
| O=C(c1ccc2c(ccn2-c2ccc(C(F)(F)F)cc2)c1)N1CCN(C2CN(C(=O)c3cscn3)C2)CC1 | log10 Kd | 1.60 |
| Cc1cn(-c2ccc(F)c(F)c2)c2ccc(C(=O)N3CCN(C4CN(C(=O)c5ccc[nH]5)C4)CC3)cc12 | log10 Kd | 1.40 |
| O=C(c1ccccc1)N1CCN(C2CN(C(=O)c3ccc4c(c3)c(F)cn4-c3ccc(F)cc3)C2)CC1 | log10 Kd | 1.68 |
| O=C(c1ccc(-c2cccc(C(F)(F)F)c2)cc1)N1CC(N2CCN(C(=O)c3ccc(F)s3)CC2)C1 | log10 Kd | 0.30 |

q: Suppose we examine the compound Cc1nc(C(=O)N2CCN(C3CN(C(=O)c4ccc(-c5cccc(C(F)(F)F)c5)cc4)C3)CC2)cs1 ; what log10 Kd value has been reported?
a: 2.02

* * *

- experimental_system: purified wild type MGL (wt-MGLL 6H-11-313) (Homo sapiens)
- Sequence (Q99685 1-303): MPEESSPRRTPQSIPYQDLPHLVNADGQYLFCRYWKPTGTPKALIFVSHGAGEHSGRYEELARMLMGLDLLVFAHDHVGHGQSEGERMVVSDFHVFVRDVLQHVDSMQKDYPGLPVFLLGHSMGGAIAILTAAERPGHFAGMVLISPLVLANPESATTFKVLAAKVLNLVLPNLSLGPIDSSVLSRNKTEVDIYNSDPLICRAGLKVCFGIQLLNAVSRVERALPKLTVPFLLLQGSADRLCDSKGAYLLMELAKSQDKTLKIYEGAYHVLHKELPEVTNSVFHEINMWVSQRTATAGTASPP
property: IC50

Example results:
| smiles_input | property | measured |
| --- | --- | --- |
| O=C(c1ccccc1)N1CCN(C2CN(C(=O)c3ccc4c(c3)c(F)cn4-c3ccc(F)cc3)C2)CC1 | IC50 | 0.049 µM |
| Cc1cn(-c2ccc(F)c(F)c2)c2ccc(C(=O)N3CCN(C4CN(C(=O)c5ccc[nH]5)C4)CC3)cc12 | IC50 | 0.235 µM |

Next item in the queue.
q: Look at this compound and give its reported IC50. Cc1nc(C(=O)N2CCN(C3CN(C(=O)c4ccc(-c5cccc(C(F)(F)F)c5)cc4)C3)CC2)cs1
a: 0.22 µM
